- SUBJECT_OF_TEST: human M3 receptor (Homo sapiens, UniProt P20309)
- Sequence (P20309 whole entry): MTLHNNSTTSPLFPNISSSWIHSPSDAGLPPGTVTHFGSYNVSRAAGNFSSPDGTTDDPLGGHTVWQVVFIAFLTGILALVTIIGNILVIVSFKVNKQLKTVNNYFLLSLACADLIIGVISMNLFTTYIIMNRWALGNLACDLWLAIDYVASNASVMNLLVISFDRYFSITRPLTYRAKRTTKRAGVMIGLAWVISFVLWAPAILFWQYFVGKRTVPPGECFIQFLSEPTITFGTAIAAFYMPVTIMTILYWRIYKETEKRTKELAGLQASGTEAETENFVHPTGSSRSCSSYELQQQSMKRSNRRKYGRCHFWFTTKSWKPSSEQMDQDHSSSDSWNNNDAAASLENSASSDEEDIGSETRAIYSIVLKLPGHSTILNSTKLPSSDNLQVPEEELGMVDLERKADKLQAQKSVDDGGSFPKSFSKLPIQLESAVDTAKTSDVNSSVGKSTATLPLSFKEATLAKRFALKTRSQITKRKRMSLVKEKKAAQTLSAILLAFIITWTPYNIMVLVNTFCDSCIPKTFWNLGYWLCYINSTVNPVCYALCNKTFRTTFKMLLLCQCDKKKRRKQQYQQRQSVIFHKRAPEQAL
MEASURED_PROPERTY: pKi
Friendly reminder that pKi comes from taking -log10 of the concentration in mol/L.

Field: example entries. Status: answers known.
| COMPOUND | pKi |
| --- | --- |
| O=C(OC1C[N+]2(CCCOc3ccc(I)cc3)CCC1CC2)C(O)(c1ccccc1)c1ccccc1 (stereo not shown) | 9.66 |
| COc1ccc(OCCC[N+]23CCC(CC2)C(OC(=O)C(O)(c2ccccc2)c2ccccc2)C3)cc1 (stereo not shown) | 8.23 |
| O=C(OC1C[N+]2(CCCOc3ccc(C(F)(F)F)cc3)CCC1CC2)C(O)(c1ccccc1)c1ccccc1 (stereo not shown) | 8.57 |

Now for another entry.
Would you please give the reported pKi of O=C(OC1C[N+]2(CCCOc3ccc(OC(F)(F)F)cc3)CCC1CC2)C(O)(c1ccccc1)c1ccccc1 (stereo not shown) with human M3 receptor (Homo sapiens, UniProt P20309)?
9.41

====

Here the recorded pKi is given for each entry.
- SUBJECT_OF_TEST: UniProtKB P20309
Friendly reminder that pKi comes from taking -log10 of the concentration in mol/L.

Field: example entries. Status: answers known.
| MOLECULE | pKi |
| --- | --- |
| O=C(OC1C[N+]2(CCCOc3ccc(Cl)cc3)CCC1CC2)C(O)(c1ccccc1)c1ccccc1 (centres unmarked) [Compound 1-30] | 10.08 |
| O=C(OC1C[N+]2(CCOc3ccccc3Br)CCC1CC2)C(O)(c1ccccc1)c1ccccc1 (centres unmarked) [Compound 1-6] | 9.34 |
| O=C(OC1C[N+]2(CCOc3ccccc3Cl)CCC1CC2)C(O)(c1ccccc1)c1ccccc1 (centres unmarked) [Compound 1-5] | 8.62 |
| O=C(OC1C[N+]2(CCCOc3ccc(F)cc3)CCC1CC2)C(O)(c1ccccc1)c1ccccc1 (centres unmarked) [Compound 1-29] | 9.72 |

Would you please give the reported pKi of O=C(OC1C[N+]2(CCOCc3ccccc3)CCC1CC2)C(O)(c1ccccc1)c1ccccc1 (centres unmarked) [Compound 1-41] with UniProtKB P20309?
9.92

Would you please give the reported pKi of O=C(OC1C[N+]2(CCOc3ccccc3F)CCC1CC2)C(O)(c1ccccc1)c1ccccc1 (centres unmarked) [Compound 1-4] with UniProtKB P20309?
9.94

Would you please give the reported pKi of O=C(OC1C[N+]2(CCCOc3ccc(Br)cc3)CCC1CC2)C(O)(c1ccccc1)c1ccccc1 (centres unmarked) [Compound 1-31] with UniProtKB P20309?
9.49

Would you please give the reported pKi of Cc1ccc(OCCC[N+]23CCC(CC2)C(OC(=O)C(O)(c2ccccc2)c2ccccc2)C3)cc1 (centres unmarked) [Compound 1-33] with UniProtKB P20309?
10.24
